molecular target: human M4 muscarinic acetylcholine receptor (Homo sapiens); assay: human FLIPR-based M4 PAM assay (Ca2+ mobilization, CHO-K1 cells with human M4 receptor and Gαqi5); details: acetylcholine at 20% of maximum response, read-out: M4 PAM IP
measureName: pEC50
One number for each entry, as −log10 of the molar value.

Please go through the list and note pEC50 for each compound.
1. Cc1cc2c(nc1N1CCC(Oc3ccc4c(c3)C(=O)NCC4)CC1)CNC2=O
2. Cc1cc2c(nc1N1CC[C@@H](Oc3ccc4[nH]ncc4c3)[C@@H](F)C1)CNC2=O
3. Cc1cc2c(nc1N1CC[C@@H](Oc3ccc4c(c3)C(=O)N(C)C4)[C@@H](F)C1)CNC2=O
4. CCc1cc2c(nc1N1CCC(Oc3ccc4c(c3)C[C@H](O)C4)CC1)CNC2=O [Example 166A]
5. COc1ccc(OC2CCN(c3nc4c(cc3Cl)C(=O)NC4)CC2)cn1
6. CCOc1ccc(OC2CCN(c3nc4c(cc3C)C(=O)N(CCO)C4)CC2)cn1
7. Cc1cc2c(nc1N1CCC(Oc3ccc4c(c3)CC[C@H]4CCO)CC1)CNC2=O [Example 157B]

Result:
6.66
7.85
6.56
7.21
6.69
7.16
6.84

Form field pEC50, entry Cc1cc2c(nc1N1CCC(Oc3ccc4ncoc4c3)CC1)CNC2=O : 7.08

---

molecular target: human M4 muscarinic acetylcholine receptor (Homo sapiens); test: human FLIPR-based M4 PAM assay (Ca2+ mobilization, CHO-K1 cells with human M4 receptor and Gαqi5); conditions: acetylcholine at 20% of maximum response, read-out: M4 PAM IP
For each entry below, report its EC50 value.
Answers are plain numbers, in µM.

Form field EC50, entry COCCn1cc(OC2CCN(c3nc4c(cc3C)C(=O)NC4)CC2)cn1 [Example 312A] : 2.51

Please go through the list and note EC50 for each molecule.
1. Cc1cc2c(nc1N1CCC(OCC3(C)CC3C#N)CC1)CNC2=O (single isomer, unassigned) [Example 191B]
2. CCc1cc2c(nc1N1CCC(Oc3ccc4c(c3)C[C@@H](O)C4)CC1)CNC2=O [Example 166B]

Result:
1. 30
2. 0.057

---

Target: human M4 muscarinic acetylcholine receptor (Homo sapiens, UniProt P08173)
Sequence (P08173 1-479): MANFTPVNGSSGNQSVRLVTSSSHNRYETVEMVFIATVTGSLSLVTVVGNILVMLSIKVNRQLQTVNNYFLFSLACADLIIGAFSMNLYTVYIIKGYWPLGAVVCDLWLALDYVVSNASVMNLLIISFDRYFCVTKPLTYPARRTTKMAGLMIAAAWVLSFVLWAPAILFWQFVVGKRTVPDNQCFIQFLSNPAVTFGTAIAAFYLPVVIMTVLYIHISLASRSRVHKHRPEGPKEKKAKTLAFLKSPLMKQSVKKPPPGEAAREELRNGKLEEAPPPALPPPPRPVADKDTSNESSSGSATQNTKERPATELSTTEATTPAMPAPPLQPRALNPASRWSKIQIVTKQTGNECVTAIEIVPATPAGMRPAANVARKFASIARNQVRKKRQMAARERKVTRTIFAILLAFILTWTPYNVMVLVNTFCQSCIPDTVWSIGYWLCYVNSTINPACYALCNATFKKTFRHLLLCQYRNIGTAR
Assay: human FLIPR-based M4 PAM assay (Ca2+ mobilization, CHO-K1 cells with human M4 receptor and Gαqi5)
Conditions: acetylcholine at 20% of maximum response, read-out: M4 PAM IP
measureName: EC50 (nM)
Give bare numbers, in nM.

Form field EC50, entry COc1ccc(OC2CCN(c3nc4c(cc3C)C(=O)N(C)C4)CC2)cn1 : 36

Form field EC50, entry Cc1c(N2CC[C@H](Oc3cnn(C)c3)C(F)(F)C2)nc2c(c1C)C(=O)NC2 [Example 336C] : 33

Form field EC50, entry Cc1cc2c(nc1N1CCC(Oc3ccc4c(c3)NCCO4)CC1)CNC2=O : 87

Form field EC50, entry COCCOc1ccc(OC2CCN(c3nc4c(c(C)c3C)C(=O)NC4)CC2)cn1 : 109

Form field EC50, entry Cc1cc2c(nc1N1CCC(Oc3ccccc3)C(F)(F)C1)CNC2=O (single isomer, unassigned) [Example 158A] : 452

Form field EC50, entry Cc1c(N2CC[C@@H](OCC3(C)CC3)[C@@H](F)C2)nc2c(c1C)C(=O)NC2 [Example 161A] : 21

Please go through the list and note EC50 for each compound.
1. Cc1cc(OC2CCN(c3nc4c(cc3C)C(=O)NC4)CC2)cnc1C
2. COc1ccc(OC2[C@@H]3C[C@H]2CN(c2nc4c(cc2C)C(=O)NC4)C3)cn1 (single isomer, unassigned) [Example 185B]
3. Cc1cc2c(nc1N1CCC(Oc3ccc(F)cc3)CC1)CN(CCO)C2=O
4. Cc1c(N2CC[C@@H](OCC3(C)CC3)[C@H](F)C2)nc2c(c1C)C(=O)NC2 [Example 174A]
5. Cc1cc2c(nc1N1CCC(OCC34CC(C3)C4)CC1)CNC2=O
6. CCN1Cc2nc(N3CCC(Oc4ccc(OC)nc4)CC3)c(C)cc2C1=O
7. COc1ccc(OC2CCN(c3nc4c(cc3C)C(=O)N(C)C4C(C)(C)O)CC2)cn1 (stereo not shown)
8. Cc1cc2c(nc1N1CC[C@@H](Oc3ccc4c(cnn4C)c3)[C@@H](F)C1)CN(CCO)C2=O [Example 267E]

Result:
1. 88
2. 2530
3. 36
4. 22
5. 223
6. 81
7. 499
8. 69

Please go through the list and note EC50 for each compound.
1. Cc1cc2c(nc1N1CCC(Oc3ccc4[nH]ncc4c3)CC1)C(C)N(C)C2=O (stereo not shown)
2. Cc1cc2c(nc1N1CCC(Oc3ccc4c(c3)C(=O)N(C)C4)CC1)CNC2=O

Result:
52
136

Please go through the list and note EC50 for each compound.
1. Cc1cc2c(nc1N1CCC(OCC(O)C(F)(F)F)CC1)CNC2=O (single isomer, unassigned) [Example 181A]
2. Cc1c(N2CCC(Oc3ccc4c(cnn4C)c3)CC2)nc2c(c1C)C(=O)N(CCO)C2 [Example 265D]

Result:
55
65

Please go through the list and note EC50 for each compound.
1. Cc1cc2c(nc1N1CC[C@@H](Oc3ccc4c(cnn4C)c3)[C@H](F)C1)CNC2=O
2. COc1ncc(OC2CCN(c3nc4c(cc3C)C(=O)NC4)CC2)cc1C
3. COc1ccc(OC2CCN(c3nc4c(cc3C)C(=O)N([C@@H](C)CO)C4)CC2)cn1 (single isomer, unassigned) [Example 264C]
4. Cc1cc2c(nc1N1CCC(Oc3cccc(C#N)c3)CC1)CN(P(=O)(O)O)C2=O
5. CCN1Cc2nc(N3CCC(Oc4cccc(C#N)c4)CC3)c(C)cc2C1=O
6. COc1ccc(OC2CCN(c3nc4c(cc3C(F)(F)F)C(=O)NC4)CC2)cn1
7. Cc1cc2c(nc1N1CCC(OCC3CCCC3)CC1)CNC2=O

Result:
75
119
40
204
74
2120
139

Please go through the list and note EC50 for each compound.
1. Cc1cc2c(nc1N1CCC(Oc3ccc(F)c(F)c3)CC1)[C@@H](CO)N(C)C2=O
2. Cc1cc2c(nc1N1CCC(OCC3(C)CC3)CC1)CNC2=O
3. Cc1cc2c(nc1N1CCC(Oc3ccc4c(c3)C(=O)OC4)CC1)CNC2=O
4. Cc1cc2c(nc1N1CCC(Oc3ccc4c(c3)OCCC4)CC1)CNC2=O
5. CC(=O)N1CCc2ccc(OC3CCN(c4nc5c(cc4C)C(=O)NC5)CC3)cc2C1
6. Cc1cc2c(nc1N1CCC(Oc3ccc4c(c3)COC4)CC1)CNC2=O

Result:
1. 28
2. 39
3. 39
4. 50
5. 137
6. 28

Please go through the list and note EC50 for each compound.
1. Cc1cc2c(nc1N1CCC(Oc3ccnc(CO)c3)CC1)CNC2=O
2. COc1ccc(OC2CCN(c3nc4c(cc3C)C(=O)N(C)C4C)CC2)cn1 (stereo not shown)

Result:
1. 1150
2. 81

Form field EC50, entry C=C1NC(=O)c2cc(C)c(N3CCC(Oc4ccc(OC)nc4)CC3)nc21 : 156
